Target: muscarinic acetylcholine receptors
Assay: inhibition of specific binding of 3H-Oxotremorine-M (3H-Oxo), in vitro
Design: species or system rat (cortex from male Wistar rats)
Conditions: 3H-Oxo binding, rat cortex, 1.0 nM radioligand, 20 mM Hepes pH 7.4, 30 min at 25° C.
measured_parameter: Inhibition in vitro OXO BINDING (IC50) (ng/mL)
Numeric only. Scale: ng/mL

Q: Could you share which Inhibition in vitro OXO BINDING (IC50) value was measured for CCCCCOc1nsnc1C1=CCC(C)N(C)C1.O=C(O)C(=O)O (centres unmarked) [Compound 7] ?
Ans: 3.3

Q: Try CCCCCCSc1nsnc1C1=CCC(C)N(C)C1.O=C(O)C(=O)O (centres unmarked) [Compound 3] next.
Ans: 4.5

Q: Try CCCCCCOc1nsnc1C1=CCC(C)N(C)C1.O=C(O)C(=O)O (centres unmarked) [Compound 6] next.
Ans: 2.4

Q: Try CCCCCCOc1nsnc1C1=C(C)CCN(C)C1 [Compound 2] next.
Ans: 18

Q: Try CC1CC=C(c2nsnc2SCCCCC#N)CN1C.O=C(O)C(=O)O (centres unmarked) [Compound 8] next.
Ans: 0.69

Q: Try COc1nsnc1C1=C(C)CCN(C)C1.O=C(O)/C=C/C(=O)O [Compound 1] next.
Ans: 108

Q: Try CC1CC=C(c2nsnc2SCc2ccc(C#N)cc2)CN1C.O=C(O)C(=O)O (centres unmarked) [Compound 5] next.
Ans: 1.9

Q: Try CCCCCSc1nsnc1C1=CCC(C)N(C)C1.O=C(O)C(=O)O (centres unmarked) [Compound 4] next.
Ans: 2.0
